# TGT: T1, rat serum albumin (rat)
# T1 chain: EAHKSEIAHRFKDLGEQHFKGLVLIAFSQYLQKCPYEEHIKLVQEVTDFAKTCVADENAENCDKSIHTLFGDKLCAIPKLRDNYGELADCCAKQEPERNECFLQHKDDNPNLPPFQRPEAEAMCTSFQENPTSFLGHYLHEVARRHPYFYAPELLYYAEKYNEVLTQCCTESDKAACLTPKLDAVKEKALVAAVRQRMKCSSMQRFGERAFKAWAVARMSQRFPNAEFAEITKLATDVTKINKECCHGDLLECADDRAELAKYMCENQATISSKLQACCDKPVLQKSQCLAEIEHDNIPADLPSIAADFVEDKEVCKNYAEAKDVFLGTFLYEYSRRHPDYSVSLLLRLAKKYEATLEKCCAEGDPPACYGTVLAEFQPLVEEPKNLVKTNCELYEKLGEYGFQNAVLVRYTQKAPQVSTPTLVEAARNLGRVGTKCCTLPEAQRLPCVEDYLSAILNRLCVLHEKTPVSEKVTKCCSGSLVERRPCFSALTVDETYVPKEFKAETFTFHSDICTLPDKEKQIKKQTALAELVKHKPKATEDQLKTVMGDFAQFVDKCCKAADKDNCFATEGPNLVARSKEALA
# EXPERIMENT SUMMARY: SPR Biacore T200, fusion protein captured by anti-VHH antibody, albumin as analyte
VALUE TYPE: koff (s⁻¹)
Field format: number, assumed s⁻¹, no unit text.

GET /value?item= 0064 (other, Single-chain fusion: anti-HSA VHH, linker, relaxin-2 B chain, linker, relaxin-2 A chain; also called fusion protein 0064) EVQLLESGGGLVQPGGSLRLSCAASGNTYLTSCMGWFRQAPGKEREGVSSIYTVGGSTFYTNSVKGRFTISRDNSKNTLYLQMNSLQPEDTAVYYCAAGSPARCRLRDPTTFDYWGQGTLVTVSSGGGGQGGGGQGGGGQGGGGQGGGGQSWMEEVIKLCGRELVRAQIAICGMSTWSGGGSGGSGGGQLYSALANKCCHVGCTKRSLARFC &field=koff returns 0.00579
